system_tested: purified human 15-lipoxygenase (Homo sapiens, UniProt P16050)
Sequence (P16050 1-662): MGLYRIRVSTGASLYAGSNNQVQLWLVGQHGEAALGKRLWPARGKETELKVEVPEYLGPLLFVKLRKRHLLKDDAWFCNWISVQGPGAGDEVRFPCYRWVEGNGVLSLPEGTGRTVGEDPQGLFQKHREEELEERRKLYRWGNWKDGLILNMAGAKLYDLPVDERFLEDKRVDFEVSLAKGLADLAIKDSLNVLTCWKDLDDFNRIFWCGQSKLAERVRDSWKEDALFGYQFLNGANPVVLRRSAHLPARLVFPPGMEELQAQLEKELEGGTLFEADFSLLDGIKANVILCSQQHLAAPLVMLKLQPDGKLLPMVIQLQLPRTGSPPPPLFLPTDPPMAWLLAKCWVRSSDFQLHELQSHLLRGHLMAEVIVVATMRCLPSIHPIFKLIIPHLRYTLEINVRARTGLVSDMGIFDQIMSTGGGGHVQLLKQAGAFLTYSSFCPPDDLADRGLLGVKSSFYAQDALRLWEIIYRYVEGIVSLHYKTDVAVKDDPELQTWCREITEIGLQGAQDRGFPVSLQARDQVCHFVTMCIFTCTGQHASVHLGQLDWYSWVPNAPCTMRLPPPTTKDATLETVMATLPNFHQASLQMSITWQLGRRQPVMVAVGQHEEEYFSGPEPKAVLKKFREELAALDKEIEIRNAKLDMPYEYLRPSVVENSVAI
assay_details: 15-lipoxygenase inhibition assay (arachidonic acid oxidation, HPLC readout)
Type: biochemical
measured_endpoint: pIC50
Friendly reminder that pIC50 comes from taking -log10 of the concentration in mol/L.

**Q:** Please give the measured pIC50 for this compound: O=C(Nc1ccc2ccccc2n1)c1cc[nH]n1 [Example 2]
**A:** 6.48
